# Tested on: COLO-320 cells
# METHOD_SUMMARY: Inhibition of cell viability, colorimetric MTT assay
# Assay type: cell-based, human
# CONDITION_DETAILS: Homo sapiens, COLO 320; MTT assay, 72 h exposure, mean ± SD
pIC50: −log10 of the molar value.
ENDPOINT_NAME: pIC50

Below are worked cases with known answers.
[
  {
    "MOLECULE": "CN(C)C(=S)NN=Cc1cc(CN2CCN(C(=O)c3cc4ccc(O)cc4oc3=O)CC2)ccn1",
    "pIC50": 5.17
  },
  {
    "MOLECULE": "CN(C)C(=S)NN=Cc1cc(COc2ccc3cc(C(=O)N4CCN(Cc5ccnc(C=NNC(=S)N(C)C)c5)CC4)c(=O)oc3c2)ccn1",
    "pIC50": 5.34
  },
  {
    "MOLECULE": "O=C(c1cc2ccc(O)cc2oc1=O)N1CCN(Cc2ccnc(C=NNC(=S)Nc3ccccc3)c2)CC1",
    "pIC50": 4.08
  }
]

I = COc1cccc2c1C(=O)c1c(O)c3c(c(O)c1C2=O)C[C@@](O)(C(=O)CO)C[C@@H]3O[C@H]1C[C@H](N)[C@H](O)[C@H](C)O1 [Doxorubicin, reference compound]
II = Cc1cc(NCNN=Cc2cc(CN3CCN(C(=O)c4cc5ccc(O)cc5oc4=O)CC3)ccn2)cc(C)c1O
// query Which entry shows the lesser value of pIC50 here, I or II ? API: response body contains the label of the selected item.
// result II
(II: 4.05, I: 5.51)
